Catalogue of INHIBITION readings, one per entry.
- Tested on: Plasmodium berghei
- assay_protocol: Screen against P. berghei liver stage (PbLuc), transformed with Luciferase, at 2uM
- Format: functional, HepG2
- run_parameters: tested at 2 uM
Out of some 68,000 compounds screened, about 2,700 (4%) showed an effect of 50% or more. Many of the other results were omitted from the sample, so strong results are more common in it than they were.

{"compound": "CCc1ccc(C2CC(=O)Nc3c2c(=O)[nH]n3C(C)C)cc1 (stereo not drawn)", "INHIBITION / %": -9.13}
{"compound": "CCN(CC)S(=O)(=O)N1CCC(c2nccn2Cc2ccccn2)CC1", "INHIBITION / %": -28.42}
{"compound": "CCCN(CCc1ccccn1)C(=O)CCc1cnn(C)c1", "INHIBITION / %": -46.85}
{"compound": "CCc1nc(C)sc1CNC1CCN(Cc2ccccc2)C1 (stereo not drawn)", "INHIBITION / %": 26.74}
{"compound": "Cc1ccc(CN2Cc3cnn(C)c3C(COCC3CC3)C2)o1 (stereo not drawn)", "INHIBITION / %": 47.63}
{"compound": "Cn1c(=O)c2c(n3ncnc13)NC(=O)CC2c1cccc(Br)c1 (stereo not drawn)", "INHIBITION / %": -13.28}
{"compound": "CCOCC(=O)N1C[C@@H]2COC[C@H](c3nc(C)no3)[C@@H]2C1", "INHIBITION / %": 64.16}
{"compound": "CCc1csc(CNC2CCN(Cc3ccccc3)C2)n1 (stereo not drawn)", "INHIBITION / %": 50.59}
{"compound": "c1ccc(CNCC2Cn3nnc(-c4ccncc4)c3CO2)nc1 (stereo not drawn)", "INHIBITION / %": 2.87}
{"compound": "O=S(=O)(NCC1(c2cccs2)CCCC1)c1cccnc1", "INHIBITION / %": 58.53}
{"compound": "CCn1ccnc1CN1CCCN(C(=O)c2cc[nH]n2)CC1", "INHIBITION / %": 0.74}
{"compound": "Cn1c(=O)c2c(n3ncnc13)NC(=O)CC2c1cccc(F)c1 (stereo not drawn)", "INHIBITION / %": 5.31}
{"compound": "Cc1cc(C)n(CC2CCCCN2CC(=O)N(C)Cc2ccco2)n1 (stereo not drawn)", "INHIBITION / %": 40.82}
{"compound": "CC(C)C1CN(c2cccc(C#N)n2)CCCN1Cc1ccc(F)cc1 (stereo not drawn)", "INHIBITION / %": 8.26}
{"compound": "c1ccc2oc(CCCN3CCOC(Cn4cncn4)C3)nc2c1 (stereo not drawn)", "INHIBITION / %": 53.11}
{"compound": "c1cnn(CC2CN(CCCOc3ccc4c(c3)OCO4)CCO2)c1 (stereo not drawn)", "INHIBITION / %": -14.46}
{"compound": "O[C@@H]1C[C@@H](c2nc(Cc3ccccc3)no2)N(Cc2ccc(F)cc2)C1", "INHIBITION / %": 30.63}
{"compound": "Cc1nn(C)c(N2CCOCC2)c1CNC(C)c1ccco1 (stereo not drawn)", "INHIBITION / %": -39.37}
{"compound": "O=S(=O)(NCC1(c2cccs2)CCOCC1)c1cccnc1", "INHIBITION / %": -0.59}
{"compound": "COc1cccc(C2CC(=O)Nc3c2c(=O)n(C)c2ncnn32)c1 (stereo not drawn)", "INHIBITION / %": 15.49}
{"compound": "Cc1noc([C@H]2COC[C@H]3CN(C(=O)Cc4ccc(F)cc4)C[C@H]32)n1", "INHIBITION / %": 11.08}
{"compound": "COCCS(=O)(=O)NC(C)c1ccc(-n2nc(C)cc2C)cc1 (stereo not drawn)", "INHIBITION / %": -25.82}
{"compound": "CN(C)C(c1ccccn1)C1CCC(CNC(=O)CC2CCCC2)CC1 (stereo not drawn)", "INHIBITION / %": 0.64}
